Measured GI50 values are reported for all entries that follow.
Test system: PC-3 prostate
test_details: NCI tumour cell line growth inhibition, 48 h

Examples from the recorded data:
compound: O=S(=O)(NC1=NCCN1C(=S)SN1CCn2c1nsc2=S)c1cccc2ccccc12
experimental_endpoint: GI50
meas_value: 29.2 µM

compound: COc1cccc(/C(C#N)=C/c2nc3c(N4CCOCC4)nc(Cl)nc3n2C)c1
experimental_endpoint: GI50
meas_value: 1.06 µM

compound: Cc1nc(N)nc2c1CCC(O)S2 (centres undefined)
experimental_endpoint: GI50
meas_value: 3.52 µM

compound: CN(CCCCCl)P(=O)(OCCS(=O)(=O)CC(NC(=O)CCC(N)C(=O)O)C(=O)NC(C(=O)O)c1ccccc1)OCC1OC(n2ccc(N)nc2=O)C(F)(F)C1O (centres undefined)
experimental_endpoint: GI50
meas_value: 5.24 µM

compound: CC(=O)c1c(C)nc(SSc2nc(C)c(C(C)=O)c(-c3ccc(Cl)cc3)c2C#N)c(C#N)c1-c1ccc(Cl)cc1
experimental_endpoint: GI50
meas_value: > 150 µg/mL

compound: O=C(Nc1cc(C(F)(F)F)ccc1Cl)c1ccc(NC2=C(Cl)C(=O)N(Cc3ccccc3)C2=O)cc1
experimental_endpoint: GI50
meas_value: 14.8 µM

Q: # lookup: GI50 of COc1cc(F)c(F)c(Nc2ccc(I)cc2F)c1NS(=O)(=O)C1(C[C@H](O)CO)CC1
Result: > 6.75 µM

Q: Next entry: COc1cc(OC)c(C(=O)/C=C/c2cc3c(cc2OCc2ccccc2)OC(C)(C)CC3)cc1CC=C(C)C
Result: 5.75 µM

Q: Next entry: COc1ccc(NC(=O)CSC2=C(Nc3cccc(Br)c3)C(=O)N(Cc3ccccc3)C2=O)cc1Cl
Result: 8.82 µM

Q: Next entry: C=CCn1c(C)nc2ccc(Nc3nc(Nc4ccc(F)cc4)nc4ccccc34)cc21
Result: 3.14 µM

Q: Next entry: COc1cc2ncn(-c3cc(OCc4ccccc4C(F)(F)F)c(C(=O)N(C)C)s3)c2cc1OC
Result: > 19 µM

Q: Next entry: CC(C)c1c(-c2ccccc2)nc2c(C#N)c[nH]n2c1=O
Result: 25.2 µM

Q: Next entry: Cc1nc(-c2ccccc2)n2nc(NCCCN3CCOCC3)ncc12
Result: > 25 µM

Q: Next entry: COc1ccc(/C=C/C(=O)/C=C/c2cc3ccccc3[nH]c2=O)cc1
Result: 2.38 µM

---

Tested on: UACC-257 melanoma
test_details: NCI tumour cell line growth inhibition, 48 h; in the data active = GI50 below about 0.43 µM; inactive = the rest
Please state which outcome applies, choosing from Y for active, N for inactive

smiles_notation: [C](#Cc1ccccc1)[Hg][C]#Cc1ccccc1
study_target: UACC-257 melanoma
classification: N
//
smiles_notation: COc1cc(F)c(F)c(Nc2ccc(I)cc2F)c1NS(=O)(=O)C1(C[C@H](O)CO)CC1
study_target: UACC-257 melanoma
classification: Y

Q: What classification did CC[C@H](Nc1ncnc2nc[nH]c12)c1nc2cccc(F)c2c(=O)n1-c1ccccc1 end up with in this test?
Result: N

Q: Next entry: CC(C)Nc1cc(-c2c[nH]c(C(=O)N[C@H](CO)c3cccc(Cl)c3)c2)c(Cl)cn1
Result: Y

Q: Next entry: COc1cc2ncn(-c3cc(OCc4ccccc4C(F)(F)F)c(C(=O)N(C)C)s3)c2cc1OC
Result: N

Measured values drawn from PubChem BioAssay (NCI) for this set.
